Assay: Cytotoxicity assay using cell-counting kit-8
Assay type: cell-based
observationType: IC50 (µM)
Return type: number; implicit unit µM.

*Q* IC50 lookup needed for C[C@H](NC(=O)CCCCCC1(C)C(=CC=CC=CC2=[N+](CCCS(=O)(=O)[O-])c3ccc(S(=O)(=O)O)cc3C2(C)C)N(CCCS(=O)(=O)O)c2ccc(S(=O)(=O)O)cc21)C(=O)N[C@@H](CC(=O)Nc1ccc(C(F)(F)C(F)(F)C(F)(F)C(F)(F)C(F)(F)C(F)(F)C(F)(F)C(F)(F)F)cc1)C(=O)N[C@@H](Cc1ccccc1)C(N)=O (stereo partly shown) [AF647-RF-tripeptide (RF = C8F17)] , thanks.
*A* 41
